Source of measurements: the supplement of paper PMC3545927

biological target: furin, P09958; assay: furin cleavage Z-score vs untreated control; higher = more cleavage, active = 3.5 or more, inactive = 1 or less, 8 variable residues between constant flanks; conditions: 7.5 min;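 note: purified furin at 1:10 enzyme:substrate in 50 mM HEPES pH 7.5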
Sequence (P09958 whole entry): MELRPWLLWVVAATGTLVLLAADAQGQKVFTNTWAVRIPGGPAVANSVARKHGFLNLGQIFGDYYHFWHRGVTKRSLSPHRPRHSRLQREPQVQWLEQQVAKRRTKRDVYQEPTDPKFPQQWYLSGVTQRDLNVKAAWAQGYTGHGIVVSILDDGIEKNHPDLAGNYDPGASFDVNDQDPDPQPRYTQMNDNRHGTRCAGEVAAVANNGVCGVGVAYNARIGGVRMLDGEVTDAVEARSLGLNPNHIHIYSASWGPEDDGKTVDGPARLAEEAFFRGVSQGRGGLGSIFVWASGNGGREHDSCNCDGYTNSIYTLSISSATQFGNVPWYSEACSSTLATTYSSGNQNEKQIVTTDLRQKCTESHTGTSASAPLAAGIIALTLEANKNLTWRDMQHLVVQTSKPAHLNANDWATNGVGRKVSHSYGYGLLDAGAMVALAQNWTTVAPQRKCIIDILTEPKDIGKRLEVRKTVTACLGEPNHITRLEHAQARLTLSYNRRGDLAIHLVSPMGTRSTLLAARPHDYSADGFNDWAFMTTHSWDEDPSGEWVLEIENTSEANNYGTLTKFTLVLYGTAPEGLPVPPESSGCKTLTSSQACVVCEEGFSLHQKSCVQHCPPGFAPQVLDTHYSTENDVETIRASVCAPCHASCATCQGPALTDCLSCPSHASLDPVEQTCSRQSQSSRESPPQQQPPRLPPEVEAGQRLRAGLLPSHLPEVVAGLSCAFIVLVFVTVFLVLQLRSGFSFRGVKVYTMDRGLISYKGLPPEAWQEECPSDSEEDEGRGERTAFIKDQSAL
This is one part of the list. The hit rate among all sequences tested is not known here.
Readout: furin cleavage Z-score
Number only, please.

{"Record sequence": "CALLLFAGVDAGNASASA [HC348]", "Result": -0.657}
{"Record sequence": "CALLTRARRDAGNASASA [FS-1362]", "Result": 10.7}
{"Record sequence": "CALLTRIPGFAGNASASA [FS-3146]", "Result": -0.34}
{"Record sequence": "CAKVHRQRRDAGNASASA [FS-48]", "Result": 6.48}

## Input For the sequence shown here, CALGIGTVLDAGNASASA [HC824] , give the reported furin cleavage Z-score.
## Output -0.583

## Input Check CAEVDVQARDAGNASASA [FS-1628] too.
## Output -1.25

## Input Check CAVVCCSMSNAGNASASA [HC2101] too.
## Output 0.58
